Origin of values: the supplement of paper PMC8149375

test system: ACHN; assay: AUC of dose-response viability curve, drug + dasatinib, normalised to DMSO (arbitrary (AUC of normalised viability)); higher = less growth inhibition; conditions: treatment: drug + dasatinib (fixed dose, not stated); 5 days
quantity: AUC of dose-response viability curve

compound: COc1cc2ncnc(Nc3cccc(Cl)c3)c2cc1OC [AG-1478 (Tyrphostin AG-1478)] + Cc1nc(Nc2ncc(C(=O)Nc3c(C)cccc3Cl)s2)cc(N2CCN(CCO)CC2)n1 [dasatinib]
recordedNumber: 1.39
--
compound: COc1cc2nccc(Oc3ccc(NC(=O)Nc4ccc(F)cc4F)c(F)c3)c2cc1OC [Ki8751] + Cc1nc(Nc2ncc(C(=O)Nc3c(C)cccc3Cl)s2)cc(N2CCN(CCO)CC2)n1 [dasatinib]
recordedNumber: 1.89
--
compound: Cc1cc(C(C)Nc2ccccc2)c2nc(N3CCOCC3)cc(=O)n2c1 (centres undefined) [TGX-221] + Cc1nc(Nc2ncc(C(=O)Nc3c(C)cccc3Cl)s2)cc(N2CCN(CCO)CC2)n1 [dasatinib]
recordedNumber: 1.82
--
compound: Nc1cc(C(F)(F)F)c(-c2cc(N3CCOCC3)nc(N3CCOCC3)n2)cn1 [BKM120 (NVP-BKM120)] + Cc1nc(Nc2ncc(C(=O)Nc3c(C)cccc3Cl)s2)cc(N2CCN(CCO)CC2)n1 [dasatinib]
recordedNumber: 1.48
--
compound: Cn1cc(-c2ccc3nnc(C(F)(F)c4ccc5ncccc5c4)n3n2)cn1 + Cc1nc(Nc2ncc(C(=O)Nc3c(C)cccc3Cl)s2)cc(N2CCN(CCO)CC2)n1 [dasatinib]
recordedNumber: 1.87
--
compound: CS(=O)(=O)N1CCN(Cc2cc3nc(-c4cccc5[nH]ncc45)nc(N4CCOCC4)c3s2)CC1 [GDC-0941] + Cc1nc(Nc2ncc(C(=O)Nc3c(C)cccc3Cl)s2)cc(N2CCN(CCO)CC2)n1 [dasatinib]
recordedNumber: 1.55
--
compound: C#Cc1cccc(Nc2ncnc3cc(OCCOC)c(OCCO)cc23)c1.Cl [OSI-420 (Desmethyl Erlotinib)] + Cc1nc(Nc2ncc(C(=O)Nc3c(C)cccc3Cl)s2)cc(N2CCN(CCO)CC2)n1 [dasatinib]
recordedNumber: 1.35
--
compound: O=C1NC(=O)/C(=C/c2ccc3nccc(-c4ccncc4)c3c2)S1 + Cc1nc(Nc2ncc(C(=O)Nc3c(C)cccc3Cl)s2)cc(N2CCN(CCO)CC2)n1 [dasatinib]
recordedNumber: 1.45
--
compound: COc1ccc(S(=O)(=O)N(C(C)=O)c2ccccc2/C=C/c2cc[n+]([O-])cc2)cc1 [HMN-214] + Cc1nc(Nc2ncc(C(=O)Nc3c(C)cccc3Cl)s2)cc(N2CCN(CCO)CC2)n1 [dasatinib]
recordedNumber: 1.15

====

tested on: 786-O; test: GI50, drug alone; higher = less potent; details: treatment: drug alone; 5 days
Let's look at some compounds and their measured GI50, drug alone.

compound: O=c1cc(N2CCOCC2)oc2c(-c3ccccc3)cccc12
comparativeSign: >
GI50, drug alone / µM: 10
--
compound: CC[C@@H]1C(=O)N(C)c2cnc(Nc3ccc(C(=O)NC4CCN(C)CC4)cc3OC)nc2N1C1CCCC1 [BI 2536]
comparativeSign: =
GI50, drug alone / µM: 0.0101
--
compound: O=C1CCC(N2C(=O)c3ccccc3C2=O)C(=O)N1 (stereo not given) [Thalidomide]
comparativeSign: =
GI50, drug alone / µM: 0.288
--
compound: COc1ccc(C2=NC(c3ccc(Cl)cc3)C(c3ccc(Cl)cc3)N2C(=O)N2CCNC(=O)C2)c(OC(C)C)c1 (stereo not given) [Nutlin-3]
comparativeSign: >
GI50, drug alone / µM: 10
--
compound: OCc1ccc(-c2ccc(-c3ccc(CO)s3)o2)s1
comparativeSign: =
GI50, drug alone / µM: 0.0275
